- Test system: greenhouse red spider mite (Tetranychus urticae)
- Method description: Tetranychus test, OP-resistant/spray treatment (bean leaf discs)
- Format: in vivo
- Measurement parameters: Tetranychus urticae, foliar, 144 h; 4 g/ha, single active compound, 6 d; read-out: Kill in % after 6 d
Readout kind: pest or weed control at 4 g/ha (%)
Answers are plain numbers, in %.

Query: So what does the record say about pest or weed control at 4 g/ha for `Fc1cncc(-c2ncc(-c3cccc(-c4ncccn4)n3)s2)c1` ?
Response: 0

Query: What value of pest or weed control at 4 g/ha has been reported for the following compound? `c1cnc(-c2cccc(-c3cnc(-c4cccnc4)s3)n2)nc1`
Response: 0

Query: Look at this compound and give its reported pest or weed control at 4 g/ha. CC1(C)C(C=C(Cl)Cl)C1C(=O)OC(C#N)c1ccc(F)c(Oc2ccccc2)c1 (stereo not drawn)
Response: 0

Query: Quick one: pest or weed control at 4 g/ha of Cc1cc(F)c(-n2nc(C(F)(F)F)nc2N)cc1[S+]([O-])CC(F)(F)F (stereo not drawn) ?
Response: 80

Query: Any idea what its pest or weed control at 4 g/ha is? The compound is CC(c1ccc(C(F)(F)F)nc1)S(C)(=O)=NC#N (stereo not drawn)
Response: 0

Then this compound:
Query: Dear colleague, I am looking for the recorded pest or weed control at 4 g/ha of the following compound: CC1(C)C(/C=C(\Cl)C(F)(F)F)C1C(=O)OC(C#N)c1cccc(Oc2ccccc2)c1 (stereo not drawn)
Response: 80

###

- Tested on: larvae of the mustard beetle (Phaedon cochleariae)
- Method description: Phaedon cochleariae larvae test (sprayed cabbage leaves)
- Format: in vivo
- Measurement parameters: Phaedon cochleariae, 48 h; 0.8 g/ha, single active compound, 2 d; read-out: Kill in % after 2 d
Task for the reader: assign each of the following compounds its reported pest or weed control at 0.8 g/ha.

Query: Could you tell me which pest or weed control at 0.8 g/ha is on file for `CC1(C)[C@H](C(=O)O[C@H](C#N)c2cccc(Oc3ccccc3)c2)[C@@H]1C=C(Br)Br` ?
Response: 67%

Query: What does the record list as pest or weed control at 0.8 g/ha for N#Cc1nn(-c2c(Cl)cc(C(F)(F)F)cc2Cl)c(N)c1[S+]([O-])C(F)(F)F (stereo not shown) ?
Response: 50%

Query: Quick check: pest or weed control at 0.8 g/ha of `CNC(=O)c1cc(C#N)cc(C)c1NC(=O)c1cc(Br)nn1-c1ncccc1Cl` ?
Response: 50%

Turning now to a further compound:
Query: // lookup pest or weed control at 0.8 g/ha for `CNC(=O)c1cc(Cl)cc(C)c1NC(=O)c1cc(Br)nn1-c1ncccc1Cl`
Response: 67%

###

- Test system: greenhouse red spider mite (Tetranychus urticae)
- Method description: Tetranychus test, OP-resistant/spray treatment (bean leaf discs)
- Type: in vivo
- Measurement parameters: Tetranychus urticae, foliar, 48 h; 4 g/ha, single active compound, 2 d; read-out: Kill in % after 2 d
Hi there, I'd appreciate the recorded pest or weed control at 4 g/ha for every entry that follows.
Remember to put the unit after the number in your answer.

Example results:
Query: So what's the measured pest or weed control at 4 g/ha for this one? Fc1cncc(-c2ncc(-c3cccc(-c4ncccn4)n3)s2)c1 [compound of the formula (I-3)]
Response: 0%

Query: # query: pest or weed control at 4 g/ha of entry CC(C)c1cc(Oc2ccccc2)cc(C(C)C)c1NC(=S)NC(C)(C)C [diafenthiuron]
Response: 0%

Query: Request the reported pest or weed control at 4 g/ha associated with CCc1nn(C)c(C(=O)NCc2ccc(C(C)(C)C)cc2)c1Cl [tebufenpyrad, Tebufenpyrad]
Response: 70%

---
Query: Which pest or weed control at 4 g/ha value is on record for c1cnc(-c2cccc(-c3cnc(-c4cccnc4)s3)n2)nc1 [compound of the formula (I-2)] ?
Response: 0%

###

- System: armyworm (Spodoptera frugiperda)
- Method description: Spodoptera frugiperda larvae test (sprayed cabbage leaves)
- Assay type: in vivo
- Measurement parameters: Spodoptera frugiperda, 144 h; 0.8 g/ha, single active compound, 6 d; read-out: Kill in % after 6 d
Readout kind: pest or weed control at 0.8 g/ha (%)
Numbers only, in %.

Guide cases for pest or weed control at 0.8 g/ha, answers given:
Query: Form field: reported pest or weed control at 0.8 g/ha of CC1(C)C(C=C(Cl)Cl)C1C(=O)OC(C#N)c1cccc(Oc2ccccc2)c1 (stereo not shown)
Response: 33

Query: Recorded pest or weed control at 0.8 g/ha of `CNC(=O)c1cc(C#N)cc(C)c1NC(=O)c1cc(Br)nn1-c1ncccc1Cl` , please.
Response: 50

Query: Which pest or weed control at 0.8 g/ha is reported for this molecule? CC1(C)C(/C=C(\Cl)C(F)(F)F)C1C(=O)OC(C#N)c1cccc(Oc2ccccc2)c1 (stereo not shown)
Response: 50

Turning now to a further molecule:
Query: I am curious: what pest or weed control at 0.8 g/ha value has been reported for CC1(C)C(/C=C/C(=O)OC(C(F)(F)F)C(F)(F)F)C1C(=O)OC(C#N)c1cccc(Oc2ccccc2)c1 (stereo not shown) ?
Response: 0

###

- Test system: green peach aphid (Myzus persicae)
- Method description: Myzus persicae test (spray treatment of infested cabbage leaves)
- Type: in vivo
- Measurement parameters: Myzus persicae, 24 h; 4 g/ha, after 1 d; read-out: Kill in % after 1d
Answer each item with its documented pest or weed control at 4 g/ha.

Consider the following illustrative entries.
Query: # query: pest or weed control at 4 g/ha of entry Fc1cncc(-c2ncc(-c3cccc(-c4ncccn4)n3)s2)c1 [compound of the formula (I-3)]
Response: 0%

Query: Any idea what its pest or weed control at 4 g/ha is? The molecule is `O=C1C=C(N(Cc2ccc(Cl)nc2)CC(F)F)CO1`
Response: 70%

Query: What pest or weed control at 4 g/ha value was documented for this molecule, Cc1c(F)c(F)c(COC(=O)[C@@H]2[C@H](/C=C(\Cl)C(F)(F)F)C2(C)C)c(F)c1F (racemic) [tefluthrin] ?
Response: 70%

Query: # get_value(readout='pest or weed control at 4 g/ha', item= c1cnc(-c2cccc(-c3cnc(-c4cccnc4)s3)n2)nc1 [compound of the formula (I-2)] )
Response: 0%

Now look at this entry.
Query: Fill in: pest or weed control at 4 g/ha of CN/C(=N\[N+](=O)[O-])NCC1CCOC1 (centres unmarked) [dinotefuran] is ___
Response: 0%

###

Exercise: state measured pest or weed control at 20 g/ha for each of the molecules provided.
- Test system: larvae of the mustard beetle (Phaedon cochleariae)
- Method description: Phaedon cochleariae larvae test (sprayed cabbage leaves)
- Type: in vivo
- Measurement parameters: Phaedon cochleariae, 48 h; 20 g/ha, single active compound, 2 d; read-out: Kill in % after 2 d
- Procedure: […] If the actual kill rate exceeds the calculated value, the action of the combination is superadditive, i.e. a synergistic effect is present. In this case, the actually observed kill rate must exceed the value calculated using the above formula for the expected kill rate (E). […] After the desired period of time, the kill in % is determined. […] The kill rates determined are entered into Colby's formula.

Query: May I ask what pest or weed control at 20 g/ha has been recorded for CN/C(=N\[N+](=O)[O-])NCC1CCOC1 (stereo not shown) [dinotefuran] ?
Response: 17%

Query: # lookup: pest or weed control at 20 g/ha of Fc1cncc(-c2ncc(-c3cccc(-c4ncccn4)n3)s2)c1 [compound of the formula (I-3)]
Response: 0%

Query: What does the record list as pest or weed control at 20 g/ha for c1cnc(-c2cccc(-c3cnc(-c4cccnc4)s3)n2)nc1 [compound of the formula (I-2)] ?
Response: 0%

Now let's try a different one.
Query: Entry Cc1nn(C)c(Oc2ccccc2)c1C=NOCc1ccc(C(=O)OC(C)(C)C)cc1 [fenpyroximate, Fenpyroximate] has what pest or weed control at 20 g/ha?
Response: 0%

Data credit: patent US20110275583A1
